assay: Pharmacokinetics, unchanged RAF265 in plasma; assay type: in vivo, human; settings: human, plasma, oral, 288 mg, Cycle 1 Day 1, DL 7.1, LD 288 mg as three doses; read-out: Cmax, Mean (SD)

| COMPOUND | Cmax [ng/mL] |
| --- | --- |
| Cn1c(Nc2ccc(C(F)(F)F)cc2)nc2cc(Oc3ccnc(-c4ncc(C(F)(F)F)[nH]4)c3)ccc21 [RAF265] | 1130 |

* * *

Assay: Pharmacokinetics, unchanged RAF265 in plasma
Type: in vivo, human
Conditions: human, plasma, oral, 2 mg, Cycle 1 Day 15, DL 1, MD 2 mg; read-out: Cmax, Mean (SD)
Protocol: PK parameters included the maximum observed concentration (C max), time to reach C max (T max), area under the curve from time 0 to last measurable concentration (AUClast), time point of the last measurable concentration (T last), and terminal half‐life of elimination phase (T 1/2). Cycle 1 Day 1 and day 15, reported PK parameters include C max, T max, AUClast and T last. […] The point estimate and associated 90% CI for the slope parameter were determined for safety considerations.
QUANTITY_NAME: Cmax (ng/mL)

| COMPOUND | READING |
| --- | --- |
| Cn1c(Nc2ccc(C(F)(F)F)cc2)nc2cc(Oc3ccnc(-c4ncc(C(F)(F)F)[nH]4)c3)ccc21 [RAF265] | 130 |
